- Measurement description: Example 3: pharmacokinetics of Compound 1 and RTV at a range of RTV doses
- Condition notes: both, human, plasma, oral, Half-life, RTV in plasma; Compound 1 125 mg + 200 mg RTV QD; mean (CV %)

{"Compound": "CC(C)c1nc(CN(C)C(=O)N[C@H](C(=O)N[C@@H](Cc2ccccc2)C[C@H](O)[C@H](Cc2ccccc2)NC(=O)OCc2cncs2)C(C)C)cs1 [Ritonavir, reference compound]", "half-life (min)": 343}

###

- Test system: CYP3A (hepatic)
- Measurement description: Example 3: IV midazolam probe for CYP3A activity at a range of RTV doses
- Condition notes: human, plasma, iv, probe midazolam, Half-life (mean), MDZ 1 mg IV, +20 mg RTV
Measurement label: half-life (h)

{"Smiles structure": "Cc1ncc2n1-c1ccc(Cl)cc1C(c1ccccc1F)=NC2", "Reading": 7.83}

###

- Measurement description: Example 7: food effect on pharmacokinetics of Compound 1 in healthy Japanese males
- Assay type: in vivo
- Condition notes: male, human, plasma, po, 400 mg, Fasted, single oral dose 400 mg; Mean ± SD (n = 6)

{"Smiles structure": "COc1cc2c(cc1Cc1cccc(Cl)c1F)c(=O)c(C(=O)O)cn2[C@H](CO)C(C)C", "AUC(0-inf), ng·h/mL": 1450}

###

- Measurement description: Example 1: pharmacokinetics of Compound 1 alone and with RTV in healthy subjects
- Type: in vivo, human
- Condition notes: both sexes, human, plasma, oral, 100 mg, Compound 1 in plasma; Day 1, single dose Compound 1 100 mg alone; median (min, max)

{"Compound": "COc1cc2c(cc1Cc1cccc(Cl)c1F)c(=O)c(C(=O)O)cn2[C@H](CO)C(C)C [Compound 1]", "half-life / min": 186}

###

- Tested on: CYP3A (hepatic)
- Measurement description: Example 3: IV midazolam probe for CYP3A activity at a range of RTV doses
- Condition notes: human, plasma, iv, 1 mg, probe midazolam, Half-life (mean), MDZ 1 mg IV alone

{"Smiles structure": "Cc1ncc2n1-c1ccc(Cl)cc1C(c1ccccc1F)=NC2", "Endpoint unit": "h", "half-life": 3.97}

###

- Measurement description: Example 1: pharmacokinetics of Compound 1 alone and with RTV in healthy subjects
- Format: in vivo, human
- Condition notes: both sexes, human, plasma, oral, ritonavir in plasma; Day 20, RTV 100 mg + Compound 1 100 mg twice daily; mean; read-out: AUC (AUCtau)
- From the text: The study was an open-label, fixed-sequence, crossover, pharmacokinetic study with 12 subjects. The subjects were healthy males and non-pregnant, nonlactating females between 18 and 45 years of age, inclusive. The duration of the study was 20 days, with Period 1 of Days 1 to 10 and Period 2 of days 11 to 20. Follow-up contact was on day 27.

{"Molecule": "CC(C)c1nc(CN(C)C(=O)N[C@H](C(=O)N[C@@H](Cc2ccccc2)C[C@H](O)[C@H](Cc2ccccc2)NC(=O)OCc2cncs2)C(C)C)cs1 [Ritonavir, reference compound]", "AUC (ng·h/mL)": 9400}

###

- Measurement description: Example 3: pharmacokinetics of Compound 1 and RTV at a range of RTV doses
- Condition notes: both, human, plasma, oral, Cmax, Compound 1 in plasma; Compound 1 125 mg + 20 mg RTV QD; mean (CV %)

{"Smiles structure": "COc1cc2c(cc1Cc1cccc(Cl)c1F)c(=O)c(C(=O)O)cn2[C@H](CO)C(C)C", "Cmax, ng/mL": 1370}

###

- Measurement description: Example 1: pharmacokinetics of Compound 1 alone and with RTV in healthy subjects
- Format: in vivo, human
- Condition notes: both sexes, human, plasma, oral, Compound 1 in plasma; Day 11, Compound 1 100 mg twice daily + single dose RTV 100 mg; mean

{"Smiles structure": "COc1cc2c(cc1Cc1cccc(Cl)c1F)c(=O)c(C(=O)O)cn2[C@H](CO)C(C)C", "Cmax, ng/mL": 795}

###

- Measurement description: Example 1: pharmacokinetics of Compound 1 alone and with RTV in healthy subjects
- Type: in vivo, human
- Condition notes: both sexes, human, plasma, oral, 100 mg, Compound 1 in plasma; Day 10, Compound 1 100 mg twice daily alone; mean (% CV)
- Excerpt: The study was an open-label, fixed-sequence, crossover, pharmacokinetic study with 12 subjects. The subjects were healthy males and non-pregnant, nonlactating females between 18 and 45 years of age, inclusive. The duration of the study was 20 days, with Period 1 of Days 1 to 10 and Period 2 of days 11 to 20. Follow-up contact was on day 27.

{"Smiles structure": "COc1cc2c(cc1Cc1cccc(Cl)c1F)c(=O)c(C(=O)O)cn2[C@H](CO)C(C)C", "Cmax [ng/mL]": 164}

###

- Measurement description: Example 3: pharmacokinetics of Compound 1 and RTV at a range of RTV doses
- Condition notes: both, human, plasma, oral, Cmax, RTV in plasma; Compound 1 125 mg + 50 mg RTV QD; mean (CV %)
Measurement label: Cmax

{"Molecule": "CC(C)c1nc(CN(C)C(=O)N[C@H](C(=O)N[C@@H](Cc2ccccc2)C[C@H](O)[C@H](Cc2ccccc2)NC(=O)OCc2cncs2)C(C)C)cs1 [Ritonavir, reference compound]", "Measurement label": "Cmax", "Reading": "130 ng/mL"}

###

- Measurement description: Example 3: pharmacokinetics of Compound 1 and RTV at a range of RTV doses
- Condition notes: both, human, plasma, oral, AUCtau, RTV in plasma; Compound 1 125 mg + 200 mg RTV QD; mean (CV %)
Measurement label: AUC

{"Molecule": "CC(C)c1nc(CN(C)C(=O)N[C@H](C(=O)N[C@@H](Cc2ccccc2)C[C@H](O)[C@H](Cc2ccccc2)NC(=O)OCc2cncs2)C(C)C)cs1 [Ritonavir, reference compound]", "Reading": "16000 ng·h/mL"}

###

- Measurement description: Example 3: pharmacokinetics of Compound 1 and RTV at a range of RTV doses
- Condition notes: both, human, plasma, oral, AUCtau, Compound 1 in plasma; Compound 1 125 mg + 50 mg RTV QD; mean (CV %)

{"Compound": "COc1cc2c(cc1Cc1cccc(Cl)c1F)c(=O)c(C(=O)O)cn2[C@H](CO)C(C)C [Compound 1]", "Endpoint unit": "ng·h/mL", "AUC": 15800}

###

- Measurement description: Example 3: pharmacokinetics of Compound 1 and RTV at a range of RTV doses
- Condition notes: both, human, plasma, oral, Cmax, Compound 1 in plasma; Compound 1 125 mg + 50 mg RTV QD; mean (CV %)
Measurement label: Cmax (ng/mL)

{"Smiles structure": "COc1cc2c(cc1Cc1cccc(Cl)c1F)c(=O)c(C(=O)O)cn2[C@H](CO)C(C)C", "Measurement label": "Cmax", "Endpoint unit": "ng/mL", "Reading": 1560}

###

- Measurement description: Example 3: pharmacokinetics of Compound 1 and RTV at a range of RTV doses
- Condition notes: both, human, plasma, oral, AUCtau, RTV in plasma; Compound 1 125 mg + 50 mg RTV QD; mean (CV %)

{"Molecule": "CC(C)c1nc(CN(C)C(=O)N[C@H](C(=O)N[C@@H](Cc2ccccc2)C[C@H](O)[C@H](Cc2ccccc2)NC(=O)OCc2cncs2)C(C)C)cs1 [Ritonavir, reference compound]", "AUC (ng·h/mL)": 1120}

###

- Measurement description: Example 3: pharmacokinetics of Compound 1 and RTV at a range of RTV doses
- Condition notes: both, human, plasma, oral, Half-life, RTV in plasma; Compound 1 125 mg + 20 mg RTV QD; mean (CV %)
Measurement label: half-life (min)

{"Compound": "CC(C)c1nc(CN(C)C(=O)N[C@H](C(=O)N[C@@H](Cc2ccccc2)C[C@H](O)[C@H](Cc2ccccc2)NC(=O)OCc2cncs2)C(C)C)cs1 [Ritonavir, reference compound]", "Reading": 284}

###

- Measurement description: Example 3: pharmacokinetics of Compound 1 and RTV at a range of RTV doses
- Condition notes: both, human, plasma, oral, AUCtau, Compound 1 in plasma; Compound 1 125 mg + 20 mg RTV QD, after a meal; mean (CV %)

{"Smiles structure": "COc1cc2c(cc1Cc1cccc(Cl)c1F)c(=O)c(C(=O)O)cn2[C@H](CO)C(C)C", "AUC [ng·h/mL]": 10200}

###

- Measurement description: Example 1: pharmacokinetics of Compound 1 alone and with RTV in healthy subjects
- Type: in vivo, human
- Condition notes: both sexes, human, plasma, oral, 100 mg, Compound 1 in plasma; Day 1, single dose Compound 1 100 mg alone; mean (% CV)
Measurement label: Cmax (ng/mL)

{"Compound": "COc1cc2c(cc1Cc1cccc(Cl)c1F)c(=O)c(C(=O)O)cn2[C@H](CO)C(C)C [Compound 1]", "Endpoint unit": "ng/mL", "Reading": 200}

###

- System: CYP3A (hepatic)
- Measurement description: Example 3: IV midazolam probe for CYP3A activity at a range of RTV doses
- Condition notes: human, plasma, iv, probe midazolam, CL (mean), MDZ 1 mg IV, +200 mg RTV

{"Smiles structure": "Cc1ncc2n1-c1ccc(Cl)cc1C(c1ccccc1F)=NC2", "Endpoint unit": "mL/min/kg", "clearance": 1.45}

Data origin, for the record: patent US20070219243A1
